As shown below, each of these binders has a reported mean fluorescence intensity (MFI) value.
biological target: EGFR on the cell surface (human) (UniProt P00533); test: FACS on CAL 27 cells, method of Example 9; PBS control 3.11

Binder: S29/CD3 single chain bifunctional antibody (bispecific antibody, part only; not given: linker, anti-CD3 scFv, His tag, not shown: another chain or arm of the molecule) DIQMTQSPSSLSASVGDRVTITCHASQDINVNIGWLQQKPGKAFKGLIYHGKNLEDGVPSRFSGSGSGTDFTLTISSLQPEDFATYYCNQYENFPLTFGQGTKVEIKRGGGGSGGGGSGGGGSDVQLVESGGGLVQPGGSLRLSCAVSGYSITSDYAWNWIRQAPGKGLEWLGYISYRGRTRYNPSLKSRISITRDNSKNTFFLQLNSLRAEDTAVYYCARLGRGFRYWGQGTLVTVSS
mean fluorescence intensity (MFI): 25.7
--
Binder: S17/CD3 single chain bifunctional antibody (bispecific antibody, part only; not given: linker, anti-CD3 scFv, His tag, not shown: another chain or arm of the molecule) DIQMTQSPSSLSASVGDRVTITCHASQDINTNIGWLQQKPGKAFKGLIYHGKNLEDGVPSRFSGSGSGTDFTLTISSLQPEDFATYYCNQYENNPLTFGQGTKVEIKRGGGGSGGGGSGGGGSDVQLVESGGGLVQPGGSLRLSCAVSGYSITSDYAWNWIRQAPGKGLEWLGYISYRGRTQYNPSLKSRISITRDNSKNTFFLQLNSLRAEDTAVYYCARLGRGFRYWGQGTLVTVSS
mean fluorescence intensity (MFI): 25
--
Binder: S22/CD3 single chain bifunctional antibody (bispecific antibody, part only; not given: linker, anti-CD3 scFv, His tag, not shown: another chain or arm of the molecule) DIQMTQSPSSLSASVGDRVTITCHASQDINVNIGWLQQKPGKAFKGLIYHGTNLEDGVPSRFSGSGSGTDFTLTISSLQPEDFATYYCNQYENNPLTFGQGTKVEIKRGGGGSGGGGSGGGGSDVQLVESGGGLVQPGGSLRLSCAVSGYSITSDYAWNWIRQAPGKGLEWLGYISYRGRTRYNPSLKSRISITRDNSKNTFFLQLNSLRAEDTAVYYCARLGRGFRYWGQGTLVTVSS
mean fluorescence intensity (MFI): 24.6
--
Binder: M14/CD3 single chain bifunctional antibody (bispecific antibody, part only; not given: linker, anti-CD3 scFv, His tag, not shown: another chain or arm of the molecule) DIQMTQSPSSLSASVGDRVTITCHASQDINSNIGWLQQKPGKAFKGLIYHGKNLEDGVPSRFSGSGSGTDFTLTISSLQPEDFATYYCNQYENNPITFGQGTKVEIKRGGGGSGGGGSGGGGSDVQLVESGGGLVQPGGSLRLSCAVSGYSITSDYAWNWIRQAPGKGLEWLGYISYRGRTNYNPSLKSRISITRDNSKNTFFLQLNSLRAEDTAVYYCARLGRGFRYWGQGTLVTVSS
mean fluorescence intensity (MFI): 28.4
--
Binder: S7/CD3 single chain bifunctional antibody (bispecific antibody, part only; not given: linker, anti-CD3 scFv, His tag, not shown: another chain or arm of the molecule) DIQMTQSPSSLSASVGDRVTITCHASQDINVNIGWLQQKPGKAFKGLIYHGTNLEDGVPSRFSGSGSGTDFTLTISSLQPEDFATYYCNQYENNPITFGQGTKVEIKRGGGGSGGGGSGGGGSDVQLVESGGGLVQPGGSLRLSCAVSGYSITSDYAWNWIRQAPGKGLEWLGYISYRGRTSYNPSLKSRISITRDNSKNTFFLQLNSLRAEDTAVYYCARLGRGFRYWGQGTLVTVSS
mean fluorescence intensity (MFI): 27.9
--
Binder: S8/CD3 single chain bifunctional antibody (bispecific antibody, part only; not given: linker, anti-CD3 scFv, His tag, not shown: another chain or arm of the molecule) DIQMTQSPSSLSASVGDRVTITCHASQDINVNIGWLQQKPGKSFKGLIYHGKNLEDGVPSRFSGSGSGTDFTLTISSLQPEDFATYYCNQYENNPITFGQGTKVEIKRGGGGSGGGGSGGGGSDVQLVESGGGLVQPGGSLRLSCAVSGYSITSDYAWNWIRQAPGKGLEWLGYISYRGRTSYNPSLKSRISITRDNSKNTFFLQLNSLRAEDTAVYYCARLGRGFRYWGQGTLVTVSS
mean fluorescence intensity (MFI): 30
--
Binder: S23/CD3 single chain bifunctional antibody (bispecific antibody, part only; not given: linker, anti-CD3 scFv, His tag, not shown: another chain or arm of the molecule) DIQMTQSPSSLSASVGDRVTITCHASQDINVNIGWLQQKPGKSFKGLIYHGKNLEDGVPSRFSGSGSGTDFTLTISSLQPEDFATYYCNQYENNPLTFGQGTKVEIKRGGGGSGGGGSGGGGSDVQLVESGGGLVQPGGSLRLSCAVSGYSITSDYAWNWIRQAPGKGLEWLGYISYRGRTRYNPSLKSRISITRDNSKNTFFLQLNSLRAEDTAVYYCARLGRGFRYWGQGTLVTVSS
mean fluorescence intensity (MFI): 29.7
--
Binder: M26/CD3 single chain bifunctional antibody (bispecific antibody, part only; not given: linker, anti-CD3 scFv, His tag, not shown: another chain or arm of the molecule) DIQMTQSPSSLSASVGDRVTITCHASQDINVNIGWLQQKPGKAFKGLIYHGKNLEDGVPSRFSGSGSGTDFTLTISSLQPEDFATYYCNQYENIPLTFGQGTKVEIKRGGGGSGGGGSGGGGSDVQLVESGGGLVQPGGSLRLSCAVSGYSITSDYAWNWIRQAPGKGLEWLGYISYRGRTQYNPSLKSRISITRDNSKNTFFLQLNSLRAEDTAVYYCARLGRGFRYWGQGTLVTVSS
mean fluorescence intensity (MFI): 24.6
--
Binder: M25/CD3 single chain bifunctional antibody (bispecific antibody, part only; not given: linker, anti-CD3 scFv, His tag, not shown: another chain or arm of the molecule) DIQMTQSPSSLSASVGDRVTITCHASQDINVNIGWLQQKPGKAFKGLIYHGKNLEDGVPSRFSGSGSGTDFTLTISSLQPEDFATYYCNQYENIPLTFGQGTKVEIKRGGGGSGGGGSGGGGSDVQLVESGGGLVQPGGSLRLSCAVSGYSITSDYAWNWIRQAPGKGLEWLGYISYRGRTRYNPSLKSRISITRDNSKNTFFLQLNSLRAEDTAVYYCARLGRGFRYWGQGTLVTVSS
mean fluorescence intensity (MFI): 24.1
--
Binder: M15/CD3 single chain bifunctional antibody (bispecific antibody, part only; not given: linker, anti-CD3 scFv, His tag, not shown: another chain or arm of the molecule) DIQMTQSPSSLSASVGDRVTITCHASQDINVNIGWLQQKPGKAFKGLIYHGKNLEDGVPSRFSGSGSGTDFTLTISSLQPEDFATYYCNQYENNPITFGQGTKVEIKRGGGGSGGGGSGGGGSDVQLVESGGGLVQPGGSLRLSCAVSGYSITSDYAWNWIRQAPGKGLEWLGYISYRGRTSYNPSLKSRISITRDNSKNTFFLQLNSLRAEDTAVYYCARLGRGFRYWGQGTLVTVSS
mean fluorescence intensity (MFI): 29.4
